molecular target: T1, monomeric human c-fms (residues 1-512)-pHis (human, UniProt P07333 20-512); assay: Biacore, low resolution; hybridoma mAb captured on anti-human IgG, monomeric c-fms-pHis analyte at 125 nM
T1 construct: Construct stated as residues 1-512; signal stated as amino acids 1-19 and left out; also called human c-fms (1-512).pHIS; monomeric c-fms
T1 sequence (P07333 20-512): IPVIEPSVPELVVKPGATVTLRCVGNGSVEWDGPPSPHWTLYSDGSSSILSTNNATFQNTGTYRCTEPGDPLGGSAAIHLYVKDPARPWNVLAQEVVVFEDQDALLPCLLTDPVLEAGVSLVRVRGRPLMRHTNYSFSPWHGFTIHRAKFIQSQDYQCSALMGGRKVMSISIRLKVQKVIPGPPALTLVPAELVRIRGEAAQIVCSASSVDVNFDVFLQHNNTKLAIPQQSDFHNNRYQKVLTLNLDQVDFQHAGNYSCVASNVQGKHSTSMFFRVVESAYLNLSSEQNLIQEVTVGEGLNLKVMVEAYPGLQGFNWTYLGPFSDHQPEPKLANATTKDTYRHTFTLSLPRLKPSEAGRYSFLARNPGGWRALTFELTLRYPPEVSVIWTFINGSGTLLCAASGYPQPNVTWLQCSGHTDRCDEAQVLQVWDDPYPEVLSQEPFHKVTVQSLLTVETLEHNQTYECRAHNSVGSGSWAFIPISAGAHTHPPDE
The entries below come with measured kon values attached.
# value in M⁻¹ s⁻¹; strip the unit string

Record excerpt, results attached:
INSERT INTO results (binder, numeric_readout) VALUES
  ('anti-c-fms hybridoma antibody 2.369 (antibody, IgG2, V domains shown, Hybridoma IgG2 (cohort 2); also called 2.369.3) VH: QVQLVQSGAEVKKPGASVKVSCKVSGYTLTELSMHWVRQAPGKGLEWMGGFDPEDGETIYAQKFQGRVTMTEDTSTDTAYMELSSLRSEDTAVYYCATRAGTTLAYYYYAMDVWGQGTTVTVSS VL: DIQMTQSPSSLSASVGDRVTITCRASQSISRYLNWYQQKPGKAPNLLIHAASSLQSGVPSRFSGSGSGTDFTLTISSLQPEDFATYYCQQSYITPPSFGQGTKLEIK', 100000),
  ('anti-c-fms hybridoma antibody 2.508 (antibody, IgG2, V domains shown, Hybridoma IgG2 (cohort 2); also called 2.508.1; 2.508.2) VH: QVQLVQSGAEVKKPGASVKVSCKVSGYTLTELSMHWVRQAPGKGLEWMGGFDPEDGETIYAQKFQGRVTMTEDTSTDTAYMELSSLRSEDTAVYYCATAGLEIRWFDPWGQGTLVTVSS VL: DIVMTQSPLSLPVTPGEPASISCRSSQSLLHSNGYNYLDWYLQKPGQSPQFLIYLGSIRASGVPDRFSGSGSGTDFALTISRVEAEDVGVYYCMQALQTPRTFGQGTKVEIK', 74900),
  ('anti-c-fms hybridoma antibody 1.90 (antibody, IgG1, V domains shown, Hybridoma IgG1 (cohort 1); also called 1.90.2) VH: QVQLVESGGGVVQPGRSLRLSCAASGFTFSSYGMHWVRQAPGKGLEWVAVIWYDGSNKYYADSVKGRFTISRDNSKNTLYLQMNSLRAEDTAVYYCASSSSNFYDMDVWGQGTTVTVSS VL: DIQMTQSPSSLSASVGDRVTITCQASQDISNYLNWYQQKPGKAPKLLIYDASNLETGVPSRFSGSGSGTDFTFTISSLQPEDIATYYCQRYDDLPITFGQGTRLEIK', 193000),
  ('anti-c-fms hybridoma antibody 2.131 (antibody, IgG2, V domains shown, Hybridoma IgG2 (cohort 2); also called 2.131.2) VH: QVQLQESGPGLVKPSETLSLTCTVSGGSISNYYWSWIRQSAGKGLEWIGRIYTSGSTHYNPSLKSRIIMSVDTSKNQFSLKLSSVTAADTAVYYCARDRVFYGMDVWGQGTTVTVSS VL: DIQMTQSPSSLSASVGDRVTITCRASQGFSNYLAWYQQKPGKVPKLLIYAASTLQSGVPSRFSGSGSGTDFTLTISSLQPEDVATYYCQKYNSAPLTFGGGTKVEIK', 43000),
  ('anti-c-fms hybridoma antibody 2.475 (antibody, IgG2, V domains shown, Hybridoma IgG2 (cohort 2); also called 2.475.2) VH: QVQLVESGGGVVQPGRSLRLSCAASGFTFISYGMHWVRQAPGKGLEWVAVIWYDGSNKYYADSVKGRFTISRDNSKNTLYLQMNSLRAEDTAVYYCADSSGDYYGMDVWGQGTTVTVSS VL: DIQMIQSPSSLSASVGDRVTITCQASHDISNYLNWYQQKPGKAPKFLISDASNLETGVPSRFSGSGSGTDFTFTISSLQPEDIATYYCQQYDNLPLTFGGGTKVEIK', 300000);

For the next question, use this binder.
The binder listed as anti-c-fms hybridoma antibody 2.534 (antibody, IgG2, V domains shown, Hybridoma IgG2 (cohort 2); also called 2.534.1; 2.534.2) VH: QVQLQESGPGLVKPSQTLSLTCTVSGGSISSGGYYWSWIRQHPGKGLEWIGYISYSGDTYYNPSLKSRLTISVDTSKHQFSLRLSSVTSADTAVYYCASLDLYGDYFDYWGQGTLVTVSS VL: EIVLTQSPDFQSVTPKEKVTITCRASQYIGSSLHWYQQTPDQSPKLLINYVSQSFSGVPSRFSGSGSGTDFTLTINSLEAEDAATYYCHQSSSLPFTFGPGTKVDIK shows kon equal to 345000
